[
  {
    "SAMPLE SMILES": "N#Cc1cc(-c2nc3cncnc3s2)ccc1Oc1ccc(F)cc1",
    "melting point": "175 to 177 °C"
  },
  {
    "SAMPLE SMILES": "N#Cc1cc(-c2nc3cncnc3s2)ccc1Sc1ccccc1F",
    "melting point": "178 to 180 °C"
  },
  {
    "SAMPLE SMILES": "Cl.N#Cc1cc(-c2nc3cncnc3s2)ccc1Oc1cccnc1",
    "melting point": "204 to 206 °C"
  },
  {
    "SAMPLE SMILES": "N#Cc1cc(-c2nc3cncnc3s2)ccc1Oc1ccccc1F",
    "melting point": "195 to 196 °C"
  },
  {
    "SAMPLE SMILES": "N#Cc1cc(-c2nc3cncnc3s2)ccc1N1CCOCC1",
    "melting point": "232 to 234 °C (dec.)"
  }
]

Hello, the source for this data is patent US20090149452A1, in case you need it.
